System: NCC-MFS5-C1
Experiment: cell viability relative to DMSO control; higher = less growth inhibition
Conditions: 10 µM; treatment time: 3 days
Label Met when cell viability < 80%; otherwise Not met.

1) CC[C@@]1(O)C(=O)OCc2c1cc1n(c2=O)Cc2cc3ccccc3nc2-1: Met
2) O=P1(N(CCCl)CCCl)NCCCO1 (configuration not stated) [Cyclophosphamide Monohydrate]: Not met
3) C/C=C(\C)C(=O)N[C@@H](c1ccccc1)[C@@H](O)C(=O)O[C@H]1C[C@@]2(O)[C@@H](OC(=O)c3ccccc3)[C@@H]3[C@]4(OC(C)=O)CO[C@@H]4C[C@H](O)[C@@]3(C)C(=O)[C@H](OC(C)=O)C(=C1C)C2(C)C: Met
4) O=C(O)CCCc1ccc(N(CCCl)CCCl)cc1: Not met
